Reference source: ChEMBL document CHEMBL1201862

# maps each entry to its GI50
- Test system: HOP-62
- Assay Procedure: NCI tumour cell line growth inhibition, 48 h
Active and inactive are the calls of the source. Cut-off read from the data, not from the text of the source: active = GI50 up to about 1.1 µM and inactive = higher.

The molecule listed as Cc1ccc(NC(=O)C(=O)C(C(=O)/C=C/c2ccccc2)C2OC(=O)c3ccccc32)c(C)c1 (configuration not stated) shows GI50 equal to > 100 µM (inactive)

The molecule listed as `NS(=O)(=O)OCCCCCCCOS(N)(=O)=O` shows GI50 equal to 142 µM (inactive)

The molecule listed as `OC(C#Cc1ccccc1)(c1ccccc1)c1ccccc1` shows GI50 equal to > 100 µM (inactive)

The molecule listed as `c1ccc(CN(Cn2cccn2)Cn2cccn2)nc1` shows GI50 equal to > 100 µM (inactive)

The molecule listed as Nc1nc(=O)c2cc(NCc3ccc(C(=O)NC(CCC(=O)O)C(=O)O)cc3)ccc2[nH]1 (configuration not stated) shows GI50 equal to > 100 µM (inactive)
